Biological target: Voltage-gated inwardly rectifying potassium channel KCNH2 (Homo sapiens)
Assay: Human Ether-a-go-go-Related Gene (hERG) channel small molecule antagonists: fluorescence cell-based qHTS assay (AID 1671200); further: nearly all actives have a fitted effect of over 50% in size
Settings: hERG-U2OS cells, FluxOR thallium flux fluorescence; series mostly up to 76.8 µM
Results filed as inconclusive are left out. Activity calls are given as the source filed them. The call rests on the fitted dose curve; in most records, active means well fitted inhibition curve with a large enough effect in the repeat runs; inconclusive means weak or mixed curves; inactive means flat fitted curve, though single readings scatter.
Return exactly one item of active, inactive

Solved entries (count: 3):
compound | group label
CCCC(CC)CCCCCCCN (configuration not stated) | active
Cc1nc(Nc2ncc(C(=O)Nc3c(C)cccc3Cl)s2)cc(N2CCN(CCO)CC2)n1 | inactive
CCOCN(C(=O)CS(=O)(=O)O)c1c(C)cccc1CC | inactive

As a next step, examine the compound that follows.
// query Query: recorded result category for CCNc1nc(NC(C)CC)nc(OC)n1 (configuration not stated) in this test
// result inactive

* * *

Assay: qHTS assay to identify small molecule antagonists of the TGF-beta/Smad signaling pathway - cell viability counter screen (AID 1346824); further: nearly all actives have a fitted effect of over 50% in size
Details: SBE-bla HEK293T viability, CellTiter-Glo luminescence; series mostly up to 76.8 µM
Results filed as inconclusive are left out. Activity calls are given as the source filed them. Calls follow the shape of the dose curve; as a rule, active = well fitted cell-killing curve with a large enough effect in the repeat runs; inconclusive = weak or mixed curves; inactive = flat fitted curve, though single readings scatter.
measured attribute: viability change, negative = cytotoxic

Some entries whose results are on file:
compound | meas value
CC(C)(C)C1=CC(=O)C=C(C(C)(C)C)C1=O | inactive
Cc1cc(Nc2ccc(O)cc2)ccc1N | inactive
CC(C)(C)c1n[nH]c(=O)n(N)c1=O | inactive
CCCCCCCCCCCCN(CCO)CCO | inactive
CCCCNc1c(C(=O)OCC)c(C)nc2c1cnn2CC | inactive

// query What value of viability change, negative = cytotoxic has been reported for the following compound? CCC(C)(C)c1cc(O)c(C(C)(C)CC)cc1O
// result inactive

// query What value of viability change, negative = cytotoxic has been reported for the following compound? CC1=C(/C=C/C(C)=C/C=C/C(C)=C\C=O)C(C)(C)CCC1
// result inactive

// query What value of viability change, negative = cytotoxic has been reported for the following compound? CCC(C)c1cc([N+](=O)[O-])cc([N+](=O)[O-])c1OC(=O)OC(C)C (configuration not stated)
// result inactive

// query What value of viability change, negative = cytotoxic has been reported for the following compound? C=C(C)CCCC
// result inactive

// query What value of viability change, negative = cytotoxic has been reported for the following compound? CCOC(OCC)C(=O)c1ccccc1
// result inactive

// query What value of viability change, negative = cytotoxic has been reported for the following compound? Brc1ccccn1
// result inactive

// query What value of viability change, negative = cytotoxic has been reported for the following compound? CC1CCCCN1CCCOC(=O)c1ccc(OC2CCCCC2)cc1 (configuration not stated)
// result inactive

// query What value of viability change, negative = cytotoxic has been reported for the following compound? CCCC(CC)CCCCCCCN (configuration not stated)
// result inactive

// query What value of viability change, negative = cytotoxic has been reported for the following compound? CCN(CC)CCSC(=O)C(c1ccccc1)c1ccccc1
// result inactive

// query What value of viability change, negative = cytotoxic has been reported for the following compound? CCCCCCOc1ccc(O)cc1
// result inactive

// query What value of viability change, negative = cytotoxic has been reported for the following compound? Cc1c(C(=O)O)cccc1[N+](=O)[O-]
// result inactive

// query What value of viability change, negative = cytotoxic has been reported for the following compound? CC(C)(c1cc(Br)c(O)c(Br)c1)c1cc(Br)c(O)c(Br)c1
// result inactive

Origin of the recorded values: PubChem BioAssay (Tox21)
